TARGET_ENTITY: Recombinant human JAK2 catalytic domain (Homo sapiens (Human), UniProt O60674)
Sequence (O60674 808-1132): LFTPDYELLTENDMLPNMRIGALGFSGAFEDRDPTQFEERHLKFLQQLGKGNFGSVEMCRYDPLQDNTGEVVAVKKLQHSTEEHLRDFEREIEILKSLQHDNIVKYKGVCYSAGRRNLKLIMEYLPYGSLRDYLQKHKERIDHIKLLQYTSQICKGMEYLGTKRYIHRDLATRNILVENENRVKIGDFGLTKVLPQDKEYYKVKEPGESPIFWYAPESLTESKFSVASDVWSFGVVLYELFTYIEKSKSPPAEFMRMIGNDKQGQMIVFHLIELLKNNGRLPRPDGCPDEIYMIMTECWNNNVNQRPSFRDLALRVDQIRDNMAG
EXPERIMENT_NOTES: JAK2 inhibition assay
Assay type: biochemical
CONDITION_NOTES: semi-quantitative score
pIC50: −log10 of the molar value.
PROPERTY: pIC50

STRUCTURE_NOTATION: Cc1noc(C)c1COc1ccc(-c2cccc3nc(NC(=O)C4CC4)nn23)cc1
RESULT: 6.30 to 7.00

STRUCTURE_NOTATION: O=C(Nc1nc2cccc(-c3ccc(C(=O)N4CCC(F)(F)C4)cc3)n2n1)C1CC1
RESULT: > 7.00

STRUCTURE_NOTATION: O=C(Nc1nc2cccc(-c3ccc(-c4cccnc4)cc3)n2n1)C1CC1
RESULT: 6.30 to 7.00

STRUCTURE_NOTATION: CC(=O)N(Cc1ccc(C#N)nc1)c1ccc(-c2cccc3nc(NC(=O)C4CC4)nn23)cc1
RESULT: > 7.00

STRUCTURE_NOTATION: CC(=O)N(Cc1ccccn1)c1ccc(-c2cccc3nc(NC(=O)C4CC4)nn23)cc1
RESULT: > 7.00

STRUCTURE_NOTATION: O=C(Nc1nc2cccc(-c3ccc(OCC4CCCCC4)cc3)n2n1)C1CC1
RESULT: 6.30 to 7.00

STRUCTURE_NOTATION: O=C(NCCOc1ccccc1)c1ccc(-c2cccc3nc(NC(=O)C4CC4)nn23)cc1
RESULT: > 7.00

STRUCTURE_NOTATION: COC1CCN(C(=O)c2ccc(-c3cccc4nc(NC(=O)C5CC5)nn34)cc2)CC1
RESULT: < 6.00
